# Test system: α2-adrenergic binding site
# method_notes: binding at the α2-adrenergic binding site
# condition_description: ratio of IC50 α1/α2
measure_name: α1/α2
In your answer, state the number alone without any accompanying words.

Clc1cccc(Nc2ccncc2)c1 :: 56

In the following, a different compound is considered.
Bench note, α2-adrenergic binding site: Cc1ccc(Nc2ccncc2)cc1 , α1/α2 reads 43

###

# Test system: scopolamine-induced swimming hyperactivity
# method_notes: scopolamine induced swimming test (SIS), reversal of scopolamine-induced swimming hyperactivity
# Format: in vivo, laboratory rats (b65); mice (b66)
# condition_description: Rattus norvegicus; 3.2 mg/kg, SC; vs scopolamine 0.1 mg/kg; five-minute test; read-out: Percent Reversal Swimming Hyperactivity, Dose 3.2 mg/kg, SC
Please note: Y applies when inhibition in vivo at 3.2 mg/kg is 20% or greater, and N applies otherwise.

Solved cases (4 shown):
Nc1ccccc1Nc1ccncc1 :: N
Cc1ccc(Nc2ccncc2)cc1 :: Y
COc1cccc(Nc2ccncc2)c1 :: Y
O=[N+]([O-])c1cccc(Nc2ccncc2)c1 :: Y

Query :: Answer whether inhibition in vivo at 3.2 mg/kg of Cc1cccc(Nc2ccncc2)c1 is greater than or equal to 20%.
Result :: Y

Query :: Confirm if inhibition in vivo at 3.2 mg/kg reported for the compound COC(=O)c1cccc(Nc2ccncc2)c1 is 20% or above.
Result :: N

Query :: Dear colleague, could you confirm whether FC(F)(F)c1cccc(Nc2ccncc2)c1 has inhibition in vivo at 3.2 mg/kg at or above 20%?
Result :: N

Query :: In plain terms: is recorded inhibition in vivo at 3.2 mg/kg at least 20% for CC(=O)N(c1ccncc1)c1ccc(Cl)c(Cl)c1 ?
Result :: Y

Query :: Could you please find out whether Clc1cccc(Nc2ccncc2)c1 has inhibition in vivo at 3.2 mg/kg that meets 20% or exceeds it?
Result :: Y

###

# Test system: scopolamine-induced swimming hyperactivity
# method_notes: scopolamine induced swimming test (SIS), reversal of scopolamine-induced swimming hyperactivity
# Type: in vivo, laboratory rats (b65); mice (b66)
# condition_description: Rattus norvegicus; 0.32 mg/kg, SC; vs scopolamine 0.1 mg/kg; five-minute test; read-out: Percent Reversal Swimming Hyperactivity, Dose 0.32 mg/kg, SC
Each record here notes measured inhibition in vivo at 0.32 mg/kg.
Respond numerically; units are % and should not be typed.

Consider the reported inhibition in vivo at 0.32 mg/kg for these compounds:
Nc1ccccc1Nc1ccncc1 :: 15
Cc1ccc(Nc2ccncc2)c([N+](=O)[O-])c1 :: 0
c1ccc(Nc2ccncc2)cc1 :: 27
Cc1ccc(Nc2ccncc2)cc1 :: 10
COC(=O)c1cccc(Nc2ccncc2)c1 :: 15
FC(F)(F)c1ccc(Nc2ccncc2)cc1 :: 0
Clc1ccc(Nc2ccncc2)c(Cl)c1 :: 0
Cc1cccc(Nc2ccncc2)c1 :: 52

Okay, next one:
Entry Nc1cccc(Nc2ccncc2)c1 — recorded inhibition in vivo at 0.32 mg/kg = 47

###

# Test system: scopolamine-induced swimming hyperactivity
# method_notes: scopolamine induced swimming test (SIS), reversal of scopolamine-induced swimming hyperactivity
# Assay type: in vivo, laboratory rats (b65); mice (b66)
# condition_description: Rattus norvegicus; 3.2 mg/kg, SC; vs scopolamine 0.1 mg/kg; five-minute test; read-out: Percent Reversal Swimming Hyperactivity, Dose 3.2 mg/kg, SC
Use 20% as the dividing line for inhibition in vivo at 3.2 mg/kg, with the line itself on the yes side and lower values as no.

The following compounds have reported results that may help.
Nc1cccc(Nc2ccncc2)c1 :: no
CN(C)c1cccc(Nc2ccncc2)c1 :: no
c1ccc(Nc2ccncc2)cc1 :: yes
CC(=O)N(c1ccncc1)c1ccc(C)cc1 :: yes

Query :: Item Clc1ccc(Nc2ccncc2)cc1Cl with inhibition in vivo at 3.2 mg/kg of 20% or above?
Result :: yes

Query :: Kindly determine if inhibition in vivo at 3.2 mg/kg recorded for Cc1ccc(Nc2ccncc2)c([N+](=O)[O-])c1 is above or exactly 20%.
Result :: no

Query :: Determine whether this compound has inhibition in vivo at 3.2 mg/kg no lower than 20%: O=[N+]([O-])c1cc(Nc2ccncc2)ccc1Cl
Result :: no

Query :: Form field: inhibition in vivo at 3.2 mg/kg at least 20%? Entry: FC(F)(F)c1ccc(Nc2ccncc2)cc1
Result :: no

Query :: Check the entry Clc1ccc(Nc2ccncc2)c(Cl)c1 : does inhibition in vivo at 3.2 mg/kg equal or exceed 20%?
Result :: yes

###

# System: scopolamine-induced swimming hyperactivity
# method_notes: scopolamine induced swimming test (SIS), reversal of scopolamine-induced swimming hyperactivity
# Assay type: in vivo, laboratory rats (b65); mice (b66)
# condition_description: Rattus norvegicus; 0.32 mg/kg, SC; vs scopolamine 0.1 mg/kg; five-minute test; read-out: Percent Reversal Swimming Hyperactivity, Dose 0.32 mg/kg, SC
Label n if inhibition in vivo at 0.32 mg/kg falls below 20%; label y in every other case.

Use these answered entries as a reference point.
Clc1ccc(Nc2ccncc2)cc1Cl :: y
COc1cccc(Nc2ccncc2)c1 :: y
CC(=O)N(c1ccncc1)c1ccc(Cl)c(Cl)c1 :: y
O=[N+]([O-])c1cccc(Nc2ccncc2)c1 :: y
O=[N+]([O-])c1cc(Nc2ccncc2)ccc1Cl :: y

Query :: Could you please find out whether CC(=O)N(c1ccncc1)c1ccc(C)cc1 has inhibition in vivo at 0.32 mg/kg that meets 20% or exceeds it?
Result :: y

Query :: Textbook exercise: given the entry Clc1cccc(Nc2ccncc2)c1 , state whether its inhibition in vivo at 0.32 mg/kg is greater than or equal to 20%.
Result :: n

Query :: Say whether CN(C)c1cccc(Nc2ccncc2)c1 shows inhibition in vivo at 0.32 mg/kg of 20% or more.
Result :: n

Query :: Please check the record FC(F)(F)c1cccc(Nc2ccncc2)c1 and state if its inhibition in vivo at 0.32 mg/kg is at or above 20%.
Result :: n

###

# tested_on: α1-adrenergic binding site
# method_notes: binding at the α1-adrenergic binding site
# condition_description: read-out: α1 IC50 (Nanomolar)
measure_name: IC50

response.value for Clc1ccc(Nc2ccncc2)cc1Cl [Compound 14, N-(3,4-Dichlorophenyl)-4-pyridinamine] (field: IC50) = > 1 µM

For reference, reported IC50 for Cc1ccc(Nc2ccncc2)cc1 [Compound 3, N-(4-Methylphenyl)-4-pyridinamine] stands at 1.6 µM

Entry under test: CC(=O)N(c1ccncc1)c1ccc(C)cc1 [Compound 17] . Its IC50 was > 10 µM

// recorded IC50 for Clc1cccc(Nc2ccncc2)c1 [Compound 4, N-(3-Chlorophenyl)-4-pyridinamine] : 7.5 µM

###

IC50 for assorted compounds
# tested_on: α2-adrenergic binding site
# method_notes: binding at the α2-adrenergic binding site
# condition_description: read-out: α2 IC50 (Nanomolar)
// note: answer is a bare numeric in nM

Clc1ccc(Nc2ccncc2)cc1Cl :: 118

Consider CC(=O)N(c1ccncc1)c1ccc(C)cc1 . Its measured IC50 is 5400

Briefly, IC50 measured for Clc1cccc(Nc2ccncc2)c1 : 133

Cc1ccc(Nc2ccncc2)cc1 has a reported IC50 of 37
